Measured target: Heat shock factor protein 1 (Homo sapiens, UniProt Q00613)
Sequence (Q00613 whole entry): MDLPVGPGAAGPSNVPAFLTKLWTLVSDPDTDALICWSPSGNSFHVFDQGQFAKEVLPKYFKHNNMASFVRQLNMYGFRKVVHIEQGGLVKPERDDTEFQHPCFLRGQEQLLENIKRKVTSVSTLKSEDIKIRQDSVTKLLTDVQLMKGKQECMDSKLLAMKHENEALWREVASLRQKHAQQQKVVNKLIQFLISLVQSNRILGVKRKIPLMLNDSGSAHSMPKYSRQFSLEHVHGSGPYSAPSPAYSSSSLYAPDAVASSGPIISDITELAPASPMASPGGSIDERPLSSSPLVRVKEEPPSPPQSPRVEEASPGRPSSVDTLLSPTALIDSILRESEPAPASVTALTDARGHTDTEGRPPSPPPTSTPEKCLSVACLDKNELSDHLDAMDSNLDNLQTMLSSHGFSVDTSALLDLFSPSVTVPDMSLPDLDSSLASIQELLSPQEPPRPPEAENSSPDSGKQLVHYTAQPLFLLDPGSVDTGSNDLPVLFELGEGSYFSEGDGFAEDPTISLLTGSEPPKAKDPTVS
Assay procedure: Induction of HSF-1 (unknown origin) degradation assessed as ATPase activity by colorimetric assay
Parameter: IC50 (µM)
Give bare numbers, in µM.

Look up IC50 for this molecule: C[C@H]1CCC/C=C/C(=O)c2c(O)cc(O)cc2CC(=O)O1 [DEHYDROCURVULARIN]
15.3

====

Assay procedure: Inhibition of PI3K (unknown origin)
Set-up: species or system Homo sapiens
Parameter: pIC50
Give bare numbers, as −log10 of the molar value.

Look up pIC50 for this compound: C[C@@]12c3ccc4c(c3C(=O)c3occ(c31)C(=O)C[C@H]2O)CCC4=O
8.18
